assay: soluble on expression in E. coli; label from the status in PepcDB or PDB records
Measured quantity: soluble on expression in E. coli

seq_text=MMRRILLKSIKFYRIYLSPLKRNACCKFIPTCSQYAIDAIEKYGALKGSFMAVKRILRCNPFSKGGYDPVKLEHHHHHH result="not soluble"
seq_text=GVALGATRVIYPAGQKQVQLAVTNNDENSTYLIQSWVENADGVKDGRFIVTPPLFAMKGKKENTLRILDATNNQLPQDRESLFWMNVKAIPSMDKSKLTENTLQLAIISRIKLYYRPAKLALPPDQAAEKLRFRRSANSLTLINPTPYYLTVTELNAGTRVLENALVPPMGESAVKLPSDAGSNITYRTINDYGALTPKMTGVME result=soluble
seq_text=NLLIQELCQAVINHFVRYLNINLGALYVSNEVESSLHLLSGYALSKAKKEMPAIRFGDGIVGQVAQERRLLVLENIPGENFVLESGLGDIQPSHILIAPILYQERMLGVIELGSLEPFTENHKEYMSHVMDSIAIAITSAHAREKVRELLEETQR result="not soluble"
seq_text=MLSPIENERSEIPSPEKLKLVEEPSDDESKFSNYDSDDWETLSDDLRLLDEEWGKSGGFDVDFSKVRHRFGRGAVHLDDDNMVSEPHETNRDLLNRLSNMAISFYNDKTGIKLELVKVLRANFHPSAAITLYITFEANDPSDGNQTKRYQAVVRYLSFDIEVCSCNPEPSSS result=soluble
seq_text=MPAKDVQICPIAVDTTVFRSRTWDRLKFEIEYGLQRGTTANSYLISADKIALFDPPGESFTDNFVGTLIQRLDLNSLDYVILGHVNANRAHTLKLLLSLAPQATIICSNPAAQNLEKLLADAEVNNPIQVMKGNDHLDLGRGHELTFIPTPSPRYPGQLCTYDPRTEILFTDKLFGAHVCGDQVFDEGWTIYQEDRRYYFDCLLAPAAAQVSAALNKLEAYPAQTYAPSHGPLVRYGLRELTRNYQQWLEHHHHHH result=soluble
seq_text=MIIDIHGHYTTAPKALEDWRNRQIAGIKDPSVMPKVSELKISDDELQASIIENQLKKMQERGSDLTVFSPRASFMAHHIGDFNVSSTWAAICNELCYRVSQLFPDNFIGAAMLPQSPGVDPKTCIPELEKCVKEYGFVAINLNPDPSGGHWTSPPLTDRIWYPIYEKMVELEIPAMIHVSTSCNTCFHTTGAHYLNADTTAFMQCVAGDLFKDFPELKFVIPHGGGAVPYHWGRFRGLAQEMKKPLLEDHVLNNIFFDTCVYHQPGIDLLNTVIPVDNVLFASEMIGAVRGIDPRTGFYYDDTKRYIEASTILTPEEKQQIYEGNARRVYPRLDAALKAKGKLEHHHHHH result=soluble

Consider now this further sequence.
Give a short answer stating reported soluble on expression in E. coli for MSLVNMEFLKRSFAPLTEKQWQEIDNRAREIFKTQLYGRKFVDVEGPYGWEYAAHPLGEVEVLSDENEVVKWGLRKSLPLIELRATFTLDLWELDNLERGKPNVDLSSLEETVRKVAEFEDEVIFRGCEKSGVKGLLSFEERKIECGSTPKDLLEAIVRALSIFSKDGIEGPYTLVINTDRWINFLKEEAGHYPLEKRVEECLRGGKIITTPRIEDALVVSERGGDFKLILGQDLSIGYEDREKDAVRLFITETFTSRLSTRRPEGHHHHHH .
soluble
